EXPERIMENTAL SYSTEM: T1, recombinant human EGFR extracellular domain with 6xHis (human, UniProt P00533 25-645)
T1 construct: In-house produced; also called 6xHis EGFR ECD; soluble human EGFR ECD; not shown: 6xHis tag
MEASUREMENT PROTOCOL: SPR competition, competitor 1284
Method: SPR analysis was performed on a Biacore 3000 machine containing four flow cells. A CM5 Biacore chip was conjugated with 10,000 Resonance units (Ru) polyclonal anti-His antibody to flow cells 1-4 according to the manufacturer's instructions. […] Immediately after antigen injection the maximal binding of the Anti-EGFR mAb without competition was established in each flow cell during a reference run. […]
Give % inhibition for every item shown.
Return type: number; implicit unit %.

Short answer for antibody 1254 (antibody, human IgG1, kappa, V domains shown, Chimeric IgG1 kappa; also called mAb 1254) VH: EVQLVESGGGLVKPGGSLKLSCAASGFAYSTYDMSWVRQTPEKRLEWVAYISSGGDAAYYPDTVKGRFTISRDNAKNTLYLQMSSLKSEDTAMYYCARSRYGNYGDAMDYWGQGTSVTVSS VL: DVVMTQTPLSLPVSLGDQASISCRSSQSLVHSNGNTYLHWYLQKPGQSPKLLLYKVSNRFSGVPDRFSGSGSGTDFTLKISRVESEDLGVYFCSQNTHVYTFGGGTKLEIKR : % inhibition was 6

Notebook: antibody 992 (antibody, human IgG1, kappa, V domains shown, Chimeric mouse/human IgG1 kappa; the VL entry includes the human kappa constant region) VH: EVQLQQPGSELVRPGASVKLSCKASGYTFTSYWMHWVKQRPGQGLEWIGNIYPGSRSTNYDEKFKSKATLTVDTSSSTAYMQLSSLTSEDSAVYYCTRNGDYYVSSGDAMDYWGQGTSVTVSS VL: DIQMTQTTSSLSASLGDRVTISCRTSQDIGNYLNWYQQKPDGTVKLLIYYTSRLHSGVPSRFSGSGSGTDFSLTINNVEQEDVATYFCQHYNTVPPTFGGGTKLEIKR , % inhibition read as 6

So, antibody 1024 (antibody, human IgG1, kappa, V domains shown, Chimeric IgG1 kappa) VH: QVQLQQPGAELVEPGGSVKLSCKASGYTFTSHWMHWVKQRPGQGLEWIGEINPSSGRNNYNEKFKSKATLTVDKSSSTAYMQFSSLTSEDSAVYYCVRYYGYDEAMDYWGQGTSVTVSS VL: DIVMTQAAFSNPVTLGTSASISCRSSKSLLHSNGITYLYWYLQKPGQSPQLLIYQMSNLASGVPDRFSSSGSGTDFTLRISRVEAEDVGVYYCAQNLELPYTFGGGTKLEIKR ? Its % inhibition was -2

The binder listed as antibody 1208 (antibody, human IgG1, kappa, V domains shown, Chimeric IgG1 kappa; also called clone 1208) VH: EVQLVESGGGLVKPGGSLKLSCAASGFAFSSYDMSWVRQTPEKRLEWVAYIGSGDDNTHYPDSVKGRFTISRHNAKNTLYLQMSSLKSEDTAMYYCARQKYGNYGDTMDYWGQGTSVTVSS VL: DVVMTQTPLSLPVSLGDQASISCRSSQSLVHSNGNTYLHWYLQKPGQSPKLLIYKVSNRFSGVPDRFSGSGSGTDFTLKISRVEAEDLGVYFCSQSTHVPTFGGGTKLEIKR has a reported % inhibition of 4
